mass density for assorted compounds
- Study Conditions: 323.15 K; 101.33 kPa; Liquid; Vibrating tube method
Report the value in kg/m3 with no unit label.

Compound | Result
CC(C)OC(=O)C[NH3+].CCCCCCCCCCCCOS(=O)(=O)[O-] [2-isopropoxy-2-oxoethan-1-aminium dodecyl sulfate] | 1010.65
CC(C)COC(=O)CC[C@H]([NH3+])C(=O)OCC(C)C.CCCCCCCCCCCCOS(=O)(=O)[O-] | 1014.45
CC(C)COC(=O)[C@H](C)[NH3+].CCCCCCCCCCCCOS(=O)(=O)[O-] [(S)-1-isobutoxy-1-oxopropan-2-aminium dodecyl sulfate] | 1022.6
CC(C)COC(=O)[C@@H]1CCC[NH2+]1.CCCCCCCCCCCCOS(=O)(=O)[O-] [(S)-2-(isobutoxycarbonyl)pyrrolidinium dodecyl sulfate] | 1017.72
CC(C)COC(=O)C[NH3+].CCCCCCCCCCCCOS(=O)(=O)[O-] [2-isobutoxy-2-oxoethan-1-aminium dodecyl sulfate] | 998.71
CC(C)OC(=O)CC[C@H]([NH3+])C(=O)OC(C)C.CCCCCCCCCCCCOS(=O)(=O)[O-] | 1031.13

## Input Specify reported mass density for the compound shown: CC(C)OC(=O)[C@@H]([NH3+])C(C)C.CCCCCCCCCCCCOS(=O)(=O)[O-]
## Output 1007.86

## Input Supply recorded mass density for CC(C)OC(=O)[C@@H]1CCC[NH2+]1.CCCCCCCCCCCCOS(=O)(=O)[O-] [(S)-2-(isopropoxycarbonyl)pyrrolidin-1-ium dodecyl sulfate] here.
## Output 1028.73

###

Each record here notes measured speed of sound.
- Study Conditions: 338.15 K; 101.33 kPa; Liquid; Sing-around technique in a fixed-path interferometer
Entry rule: numbers only, all in m/s.

Compound | Reported Metric | Result
CC(C)COC(=O)CC[C@H]([NH3+])C(=O)OCC(C)C.CCCCCCCCCCCCOS(=O)(=O)[O-] | speed of sound | 1284.2

## Input Supply reported speed of sound belonging to this compound: CC(C)OC(=O)C[NH3+].CCCCCCCCCCCCOS(=O)(=O)[O-] [2-isopropoxy-2-oxoethan-1-aminium dodecyl sulfate]
## Output 1259.9

## Input Consider the compound CC(C)COC(=O)[C@@H](N)C(C)C.CCCCCCCCCCCCOS(=O)(=O)O [isobutyl L-valinate dodecyl sulfate] and give its recorded speed of sound.
## Output 1275

###

- Method Notes: refractive index (Na D-line) (dimensionless)
- Study Conditions: 318.15 K; 101.33 kPa; Liquid; Standard Abbe refractometry
Reported Metric: refractive index
Just the number, please.

As a guide, the following entries are already answered.
Molecule | Result
CC(C)OC(=O)[C@@H]([NH3+])C(C)C.CCCCCCCCCCCCOS(=O)(=O)[O-] | 1.4465
CC(C)OC(=O)C[NH3+].CCCCCCCCCCCCOS(=O)(=O)[O-] [2-isopropoxy-2-oxoethan-1-aminium dodecyl sulfate] | 1.4549
CC(C)COC(=O)C[NH3+].CCCCCCCCCCCCOS(=O)(=O)[O-] [2-isobutoxy-2-oxoethan-1-aminium dodecyl sulfate] | 1.4527
CC(C)OC(=O)[C@@H]1CCC[NH2+]1.CCCCCCCCCCCCOS(=O)(=O)[O-] [(S)-2-(isopropoxycarbonyl)pyrrolidin-1-ium dodecyl sulfate] | 1.4478
CC(C)COC(=O)[C@H](C)[NH3+].CCCCCCCCCCCCOS(=O)(=O)[O-] [(S)-1-isobutoxy-1-oxopropan-2-aminium dodecyl sulfate] | 1.4437

## Input Output refractive index of CC(C)COC(=O)[C@@H]1CCC[NH2+]1.CCCCCCCCCCCCOS(=O)(=O)[O-] [(S)-2-(isobutoxycarbonyl)pyrrolidinium dodecyl sulfate]
## Output 1.45

## Input Report measured refractive index; entry is CC(C)COC(=O)[C@@H](N)C(C)C.CCCCCCCCCCCCOS(=O)(=O)O [isobutyl L-valinate dodecyl sulfate]
## Output 1.4471

## Input Note down refractive index recorded for CC(C)OC(=O)CC[C@H]([NH3+])C(=O)OC(C)C.CCCCCCCCCCCCOS(=O)(=O)[O-]
## Output 1.4476
